Test system: PC-12
Assay: Neuroprotection activity in rat PC12 cells assessed as reduction in 6-OHDA-induced cell damages at 10 uM preincubated for 3 hrs followed by H2O2 addition and measured after 24 hrs by MTT assay relative to control
Assay type: functional, cell-based
Settings: in the assay text read “6-OHDA addition” for “H2O2 addition”
The source made the active and inactive calls. No cut-off for these calls is given here.
Outcomes: true (active), false (inactive)

Compound: CCCCCCCCCCCS(=O)(=O)/C=C/c1ccc(O)c(O)c1
Assigned category: true
//
Compound: O=S(=O)(/C=C/c1ccc(O)c(O)c1)CCC1CCCCC1
Assigned category: true
//
Compound: O=S(=O)(/C=C/c1ccc(O)c(O)c1)CCCCCCCO
Assigned category: true
//
Compound: CCCCCCCCS(=O)(=O)/C=C/c1ccc(O)c(O)c1
Assigned category: true
//
Compound: CCCCCCS(=O)(=O)/C=C/c1ccc(O)c(O)c1
Assigned category: true
//
Compound: O=S(=O)(/C=C/c1ccc(O)c(O)c1)CCCCCCCCCO
Assigned category: true
//
Compound: O=S(=O)(/C=C/c1ccc(O)c(O)c1)CCCc1ccccc1
Assigned category: true
//
Compound: O=S(=O)(/C=C/c1ccc(O)c(O)c1)CCC1CCCC1
Assigned category: true
//
Compound: O=S(=O)(/C=C/c1ccc(O)c(O)c1)CCCCCCCCO
Assigned category: true
//
Compound: O=S(=O)(/C=C/c1ccc(O)c(O)c1)CC1CCCO1 (stereo not drawn)
Assigned category: false
//
Compound: O=S(=O)(/C=C/c1ccc(O)c(O)c1)CCCC1CCCC1
Assigned category: true
//
Compound: C=CCCCCCS(=O)(=O)/C=C/c1ccc(O)c(O)c1
Assigned category: true
//
Compound: O=S(=O)(/C=C/c1ccc(O)c(O)c1)CC1CCCC1
Assigned category: true
//
Compound: O=S(=O)(/C=C/c1ccc(O)c(O)c1)CC1CCCCO1 (stereo not drawn)
Assigned category: true
//
Compound: CCCCCCCS(=O)(=O)/C=C/c1ccc(O)c(O)c1
Assigned category: true
//
Compound: C=CCCCCCCCS(=O)(=O)/C=C/c1ccc(O)c(O)c1
Assigned category: true
//
Compound: CCCCCCCCCS(=O)(=O)/C=C/c1ccc(O)c(O)c1
Assigned category: true
//
Compound: CCCCCCCCCCS(=O)(=O)/C=C/c1ccc(O)c(O)c1
Assigned category: true
//
Compound: CCCCCCCCCCCCS(=O)(=O)/C=C/c1ccc(O)c(O)c1
Assigned category: true
//
Compound: O=S(=O)(/C=C/c1ccc(O)c(O)c1)CC1CC1
Assigned category: false
//
Compound: CC(C)(C)OC(=O)N1CCCC1CS(=O)(=O)/C=C/c1ccc(O)c(O)c1 (stereo not drawn)
Assigned category: false
//
Compound: O=S(=O)(/C=C/c1ccc(O)c(O)c1)CC1CCC1
Assigned category: true
//
Compound: O=S(=O)(/C=C/c1ccc(O)c(O)c1)CCCCCCCCCCCO
Assigned category: true
//
Compound: O=C(/C=C/c1ccc(O)c(O)c1)OCCc1ccccc1 [CAFFEIC ACID PHENETHYL ESTER]
Assigned category: true
//
Compound: C=CCCCCCCS(=O)(=O)/C=C/c1ccc(O)c(O)c1
Assigned category: true
//
Compound: CCCCCS(=O)(=O)/C=C/c1ccc(O)c(O)c1
Assigned category: true
//
Compound: O=S(=O)(/C=C/c1ccc(O)c(O)c1)CC1CCCCC1
Assigned category: true
//
Compound: O=S(=O)(/C=C/c1ccc(O)c(O)c1)CCCC1CCCCC1
Assigned category: true

###

The entries below come with measured viability at 24 h, up to 40 µM values attached.
Experiment: Cytotoxicity against […] BV2 cells assessed as cell viability at 0.625 to 40 uM after 24 hrs by MTS assay
Type: cell-based
Conditions: read-out: Activity

Molecule: C=CCCCCCCS(=O)(=O)/C=C/c1ccc(O)c(O)c1
viability at 24 h, up to 40 µM: > 90%
//
Molecule: CCCCCCCS(=O)(=O)/C=C/c1ccc(O)c(O)c1
viability at 24 h, up to 40 µM: > 90%
//
Molecule: O=S(=O)(/C=C/c1ccc(O)c(O)c1)CCCc1ccccc1
viability at 24 h, up to 40 µM: > 90%
//
Molecule: O=S(=O)(/C=C/c1ccc(O)c(O)c1)CC1CCCCO1 (stereo unspecified)
viability at 24 h, up to 40 µM: > 90%
//
Molecule: O=C(/C=C/c1ccc(O)c(O)c1)OCCc1ccccc1
viability at 24 h, up to 40 µM: > 90%
//
Molecule: CCCCCS(=O)(=O)/C=C/c1ccc(O)c(O)c1
viability at 24 h, up to 40 µM: > 90%
//
Molecule: C=CCCCCCCCS(=O)(=O)/C=C/c1ccc(O)c(O)c1
viability at 24 h, up to 40 µM: > 90%
//
Molecule: O=S(=O)(/C=C/c1ccc(O)c(O)c1)CCCCCCCCCCCO
viability at 24 h, up to 40 µM: > 90%
//
Molecule: CCCCCCS(=O)(=O)/C=C/c1ccc(O)c(O)c1
viability at 24 h, up to 40 µM: > 90%
//
Molecule: CCCCCCCCCCCS(=O)(=O)/C=C/c1ccc(O)c(O)c1
viability at 24 h, up to 40 µM: > 90%
//
Molecule: O=S(=O)(/C=C/c1ccc(O)c(O)c1)CCCC1CCCCC1
viability at 24 h, up to 40 µM: > 90%

###

Test: Cytotoxicity against rat PC12 cells assessed as cell viability at 100 uM after 24 hrs by MTT assay
Type: cell-based, PC-12
Settings: read-out: Activity
Recorded viability at 24 h, 100 µM determines the group label, using low (below 70%), intermediate (70% to below 90%), high (90% or more)

Molecule: O=S(=O)(/C=C/c1ccc(O)c(O)c1)CC1CCCCC1
Assigned category: intermediate
//
Molecule: O=S(=O)(/C=C/c1ccc(O)c(O)c1)CCC1CCCC1
Assigned category: intermediate
//
Molecule: O=S(=O)(/C=C/c1ccc(O)c(O)c1)CCCCCCCCCO
Assigned category: high
//
Molecule: CCCCCCCCCCS(=O)(=O)/C=C/c1ccc(O)c(O)c1
Assigned category: low
//
Molecule: CCCCCCCS(=O)(=O)/C=C/c1ccc(O)c(O)c1
Assigned category: intermediate
//
Molecule: C=CCCCCCCS(=O)(=O)/C=C/c1ccc(O)c(O)c1
Assigned category: low
//
Molecule: CCCCCCS(=O)(=O)/C=C/c1ccc(O)c(O)c1
Assigned category: low
//
Molecule: O=S(=O)(/C=C/c1ccc(O)c(O)c1)CC1CC1
Assigned category: high
//
Molecule: CC(C)(C)OC(=O)N1CCCC1CS(=O)(=O)/C=C/c1ccc(O)c(O)c1 (configuration not stated)
Assigned category: low
//
Molecule: O=S(=O)(/C=C/c1ccc(O)c(O)c1)CC1CCCC1
Assigned category: intermediate

###

Experiment: Cytotoxicity against […] BV2 cells assessed as cell viability at 100 uM after 24 hrs by MTT assay
Assay type: cell-based
Conditions: read-out: Activity

Molecule: O=C(/C=C/c1ccc(O)c(O)c1)OCCc1ccccc1
viability at 24 h, 100 µM (%): 69.3
--
Molecule: C=CCCCCCCS(=O)(=O)/C=C/c1ccc(O)c(O)c1
viability at 24 h, 100 µM (%): 73.4
--
Molecule: CC(C)(C)OC(=O)N1CCCC1CS(=O)(=O)/C=C/c1ccc(O)c(O)c1 (stereo not given)
viability at 24 h, 100 µM (%): 68.7
--
Molecule: C=CCCCCCCCS(=O)(=O)/C=C/c1ccc(O)c(O)c1
viability at 24 h, 100 µM (%): 71.9
--
Molecule: O=S(=O)(/C=C/c1ccc(O)c(O)c1)CC1CCCC1
viability at 24 h, 100 µM (%): 72.7

###

Test: Cytotoxicity against […] BV2 cells assessed as cell viability at 100 uM after 24 hrs by MTT assay
Assay type: cell-based
Conditions: read-out: Activity
Note to self: use true (1) only for viability at 24 h, 100 µM readings below 70%; a reading exactly at 70% still gets false (0).

Smi: C=CCCCCCS(=O)(=O)/C=C/c1ccc(O)c(O)c1
Assigned category: true (1)
--
Smi: CCCCCCCCCCCCS(=O)(=O)/C=C/c1ccc(O)c(O)c1
Assigned category: true (1)
--
Smi: CCCCCCCCCS(=O)(=O)/C=C/c1ccc(O)c(O)c1
Assigned category: true (1)
--
Smi: O=S(=O)(/C=C/c1ccc(O)c(O)c1)CCCC1CCCCC1
Assigned category: false (0)

###

Assay: Anti-neuroinflammatory activity in […] BV2 cells assessed as reduction in LPS-induced NO production preincubated for 3 hrs followed by LPS stimulation for 24 hrs by Griess assay
Format: functional, cell-based
Settings: BV-2
Experimental readout: IC50 (µM)

Molecule: C=CCCCCCCCS(=O)(=O)/C=C/c1ccc(O)c(O)c1
Experimental readout: IC50
Measurement: 8.3

Molecule: CCCCCS(=O)(=O)/C=C/c1ccc(O)c(O)c1
Experimental readout: IC50
Measurement: 3.3

Molecule: CC(C)(C)OC(=O)N1CCCC1CS(=O)(=O)/C=C/c1ccc(O)c(O)c1 (configuration not stated)
Experimental readout: IC50
Measurement: 7

Molecule: O=S(=O)(/C=C/c1ccc(O)c(O)c1)CC1CCCO1 (configuration not stated)
Experimental readout: IC50
Measurement: 54.6

Molecule: O=S(=O)(/C=C/c1ccc(O)c(O)c1)CC1CCCN1 (configuration not stated)
Experimental readout: IC50
Measurement: 103

Molecule: O=C(/C=C/c1ccc(O)c(O)c1)OCCc1ccccc1
Experimental readout: IC50
Measurement: 6

Molecule: CCCCCCCCCS(=O)(=O)/C=C/c1ccc(O)c(O)c1
Experimental readout: IC50
Measurement: 7.4

Molecule: O=S(=O)(/C=C/c1ccc(O)c(O)c1)CCCC1CCCC1
Experimental readout: IC50
Measurement: 1.6

Molecule: C=CCCCCCS(=O)(=O)/C=C/c1ccc(O)c(O)c1
Experimental readout: IC50
Measurement: 11.2

Molecule: CCCCCCCS(=O)(=O)/C=C/c1ccc(O)c(O)c1
Experimental readout: IC50
Measurement: 8.5

Molecule: O=S(=O)(/C=C/c1ccc(O)c(O)c1)CCC1CCCCC1
Experimental readout: IC50
Measurement: 11.3

Molecule: O=S(=O)(/C=C/c1ccc(O)c(O)c1)CCCCCCCCCCCO
Experimental readout: IC50
Measurement: 13.3

Molecule: CCCCCCCCCCCCS(=O)(=O)/C=C/c1ccc(O)c(O)c1
Experimental readout: IC50
Measurement: 6.6

Molecule: O=S(=O)(/C=C/c1ccc(O)c(O)c1)CC1CC1
Experimental readout: IC50
Measurement: 33.5

Molecule: O=S(=O)(/C=C/c1ccc(O)c(O)c1)CCCCCCCCO
Experimental readout: IC50
Measurement: 12.2

Molecule: O=S(=O)(/C=C/c1ccc(O)c(O)c1)CCCCCCCO
Experimental readout: IC50
Measurement: 14.3

Molecule: O=S(=O)(/C=C/c1ccc(O)c(O)c1)CCCC1CCCCC1
Experimental readout: IC50
Measurement: 9.2
